# Procedure summary: Human pharmacokinetics, healthy subjects, 7.5-hour continuous ascending dose IV infusion
# Type: in vivo
# Assay context: human, in vivo, healthy subjects, infusion rate 0.1/0.3/1 ng/kg/min, mean, N = 5
Metric: Cmax (ng/mL)

• H-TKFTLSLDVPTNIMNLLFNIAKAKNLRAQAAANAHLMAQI-NH2 [SEQ ID NO: 1] = 0.248
